Biological target: mouse EP1 (Mus musculus, UniProt P35375)
Sequence (P35375 whole entry): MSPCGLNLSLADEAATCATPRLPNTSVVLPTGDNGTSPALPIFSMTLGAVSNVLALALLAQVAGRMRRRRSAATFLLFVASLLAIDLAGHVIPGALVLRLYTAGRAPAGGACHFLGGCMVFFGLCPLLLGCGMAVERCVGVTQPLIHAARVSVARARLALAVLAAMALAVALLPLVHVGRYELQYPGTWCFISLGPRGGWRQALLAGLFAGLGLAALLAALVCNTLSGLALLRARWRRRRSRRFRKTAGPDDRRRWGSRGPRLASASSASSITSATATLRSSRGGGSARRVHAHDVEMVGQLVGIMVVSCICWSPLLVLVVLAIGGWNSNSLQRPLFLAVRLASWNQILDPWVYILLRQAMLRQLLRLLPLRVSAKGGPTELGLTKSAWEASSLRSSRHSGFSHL
Each record here notes measured Ki.

compound	metricName	experimentalResult
COCc1cccc(C[C@H](O)/C=C/[C@H]2[C@H](O)CC(=O)[C@@H]2CCSCCCC(=O)O)c1 [Example 3]	Ki	> 10 µM

As a next step, examine the compound that follows.
Challenge: For the compound shown here, CCCOCc1cccc(C[C@H](O)/C=C/[C@H]2[C@H](O)CC(=O)[C@@H]2CCSCCCC(=O)O)c1 [3 (5)] , give the reported Ki.
Response given: > 10 µM

* * *

Target: EP3α (Mus musculus, UniProt P30557)
Sequence (P30557 1-365): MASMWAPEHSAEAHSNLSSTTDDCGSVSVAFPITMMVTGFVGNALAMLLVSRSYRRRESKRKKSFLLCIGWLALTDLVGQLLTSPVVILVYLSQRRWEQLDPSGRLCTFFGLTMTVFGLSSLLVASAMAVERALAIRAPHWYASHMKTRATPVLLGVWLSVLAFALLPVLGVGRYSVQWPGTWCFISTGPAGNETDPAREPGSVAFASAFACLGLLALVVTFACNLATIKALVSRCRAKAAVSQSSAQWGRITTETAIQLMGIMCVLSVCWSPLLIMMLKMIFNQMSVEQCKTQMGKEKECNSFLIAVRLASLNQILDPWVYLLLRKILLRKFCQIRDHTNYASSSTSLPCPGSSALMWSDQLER
metricName: Ki (nM)
Numeric answer only, unit nM assumed.

Challenge: For the molecule shown here, `COCc1cccc(C[C@H](O)/C=C/[C@H]2[C@H](O)CC(=O)[C@@H]2CCSCCCC(=O)O)c1` , give the reported Ki.
Response given: 840
